Target: UniProt:P15692
Sequence (P15692 219-313): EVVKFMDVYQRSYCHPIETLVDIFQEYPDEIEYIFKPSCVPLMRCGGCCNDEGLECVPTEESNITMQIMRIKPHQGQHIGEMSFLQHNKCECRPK
Conditions: ITC, 37 °C, 50 mM HEPES/NaOH, 150 mM NaCl, pH 7.5; first binding site; calculated from ΔG and ΔH (Eq. 2); 95 % confidence interval in brackets
Where a SMILES comes first, the peptide text is derived from it. Bridges are numbered along the chain shown (N, C = ends). [ ]: non-standard residue; d: D form. Nle = CCCC[C@H](N)C(=O)O
result_type: −TΔS

Q) Name the recorded −TΔS for CCCC[C@@H]1NC(=O)[C@H](C(C)C)NC(=O)[C@H](Cc2c[nH]cn2)NC(=O)[C@H]([C@@H](C)CC)NC(=O)[C@H](CC(=O)O)NC(=O)[C@@H](N)CSSC[C@@H](C(=O)N[C@@H](Cc2ccccc2)C(=O)N[C@@H](CCC(=O)O)C(=O)N[C@@H](CCCCN)C(=O)N[C@@H](CC(C)C)C(N)=O)NC(=O)[C@H](CC(=O)O)NC(=O)[C@H](Cc2c[nH]c3ccccc23)NC(=O)[C@H](CCC(=O)O)NC(=O)[C@H](Cc2c[nH]c3ccccc23)NC1=O [compound 2] .
A) 13.3 [12.7; 13.9] kcal⋅mol^−1

Q) Continue with CCCC[C@@H]1NC(=O)[C@H](C(C)C)NC(=O)[C@H](Cc2c[nH]cn2)NC(=O)[C@H]([C@@H](C)CC)NC(=O)[C@H](CC(=O)O)NC(=O)[C@@H](N)CSSC[C@@H](C(=O)N[C@@H](Cc2ccccc2)C(=O)N[C@@H](CCC(=O)O)C(=O)N[C@@H](CC(=O)O)C(=O)N[C@@H](CC(C)C)C(N)=O)NC(=O)[C@H](CCCCN)NC(=O)[C@H](Cc2c[nH]c3ccccc23)NC(=O)[C@H](CCC(=O)O)NC(=O)[C@H](Cc2c[nH]c3ccccc23)NC1=O [compound 1] (H-CDIHV[Nle]WEWKCFEDL-NH2; disulfide 1-11)
A) 14.2 [13.8; 14.7] kcal⋅mol^−1
